Values compiled from the supplement of paper PMC10307832.

Listed here are compounds together with their documented relative viability.
- Test system: NCI-H1792
- measurementProtocol: relative viability (nuclei count vs DMSO), 5 days (fraction); higher = more cells survive
- conditionSummary: first compound 0.006325 µM
Lab note: write the figure by itself, no unit.

Hello, I am looking for reported relative viability with NCI-H1792 for CCNC(=O)c1noc(-c2cc(C(C)C)c(O)cc2O)c1-c1ccc(CN2CCOCC2)cc1 [Luminespib] + Cc1nc(Nc2ncc(C(=O)Nc3c(C)cccc3Cl)s2)cc(N2CCN(CCO)CC2)n1 [Dasatinib] (partner 0.075 µM) . Could you help? 0.619

Hello, I am looking for reported relative viability with NCI-H1792 for CCNC(=O)c1noc(-c2cc(C(C)C)c(O)cc2O)c1-c1ccc(CN2CCOCC2)cc1 [Luminespib] + NC(=O)Nc1cc(-c2cccc(F)c2)sc1C(=O)N[C@H]1CCCNC1 [AZD7762] (partner 0.2 µM) . Could you help? 0.519

Hello, I am looking for reported relative viability with NCI-H1792 for CCNC(=O)c1noc(-c2cc(C(C)C)c(O)cc2O)c1-c1ccc(CN2CCOCC2)cc1 [Luminespib] + CS(=O)(=O)N1CCN(Cc2cc3nc(-c4cccc5[nH]ncc45)nc(N4CCOCC4)c3s2)CC1 [Pictilisib] (partner 1 µM) . Could you help? 0.273

Hello, I am looking for reported relative viability with NCI-H1792 for CCNC(=O)c1noc(-c2cc(C(C)C)c(O)cc2O)c1-c1ccc(CN2CCOCC2)cc1 [Luminespib] + Nc1ncn([C@H]2C[C@H](O)[C@@H](CO)O2)c(=O)n1 [Decitabine] (partner 2 µM) . Could you help? 0.458

Hello, I am looking for reported relative viability with NCI-H1792 for CCNC(=O)c1noc(-c2cc(C(C)C)c(O)cc2O)c1-c1ccc(CN2CCOCC2)cc1 [Luminespib] + N=C(N)NC(=N)NCCc1ccccc1 [Phenformin] (partner 250 µM) . Could you help? 0.263

====

- System: EKVX
- measurementProtocol: relative viability (nuclei count vs DMSO), 5 days (fraction); higher = more cells survive
- conditionSummary: first compound 0.02 µM
Listed here are compounds together with their documented relative viability.
Lab note: write the figure by itself, no unit.

CCNC(=O)c1noc(-c2cc(C(C)C)c(O)cc2O)c1-c1ccc(CN2CCOCC2)cc1 [Luminespib] + Nc1nc2[nH]cc(CCc3ccc(C(=O)N[C@@H](CCC(=O)O)C(=O)O)cc3)c2c(=O)[nH]1 [Pemetrexed] (partner 0.2 µM)
0.408

Read the next record carefully.
State the recorded relative viability for this entry: CN1CCN(CCOc2cc(OC3CCOCC3)c3c(Nc4c(Cl)ccc5c4OCO5)ncnc3c2)CC1 [Saracatinib] + C[C@@H](Oc1cc(-c2cnn(C3CCNCC3)c2)cnc1N)c1c(Cl)ccc(F)c1Cl [Crizotinib] (partner 1 µM) 0.927

====

- Tested on: CAL-12T
- measurementProtocol: relative viability (nuclei count vs DMSO), 5 days (fraction); higher = more cells survive
- conditionSummary: first compound 6.325 µM
Listed here are molecules together with their documented relative viability.
Lab note: write the figure by itself, no unit.

These solved cases illustrate the format of a correct answer.
Cc1csc(=NC2CCCCC2)n1/N=C/c1ccc(O)c(O)c1O [MIM1] + NC(=O)Nc1cc(-c2cccc(F)c2)sc1C(=O)N[C@H]1CCCNC1 [AZD7762] (partner 0.2 µM)
0.436
Cc1csc(=NC2CCCCC2)n1/N=C/c1ccc(O)c(O)c1O [MIM1] + Cc1cc(Nc2cc(N3CCN(C)CC3)nc(Sc3ccc(NC(=O)C4CC4)cc3)n2)n[nH]1 [Tozasertib] (partner 0.1 µM)
0.206

State the recorded relative viability for this entry: Cc1csc(=NC2CCCCC2)n1/N=C/c1ccc(O)c(O)c1O [MIM1] + CS(=O)(=O)CCNCc1ccc(-c2ccc3ncnc(Nc4ccc(OCc5cccc(F)c5)c(Cl)c4)c3c2)o1 [Lapatinib] (partner 2 µM) 0.578

====

- System: ChaGo-K-1
- measurementProtocol: relative viability (nuclei count vs DMSO), 5 days (fraction); higher = more cells survive
- conditionSummary: first compound 0.006325 µM
Listed here are compounds together with their documented relative viability.
Lab note: write the figure by itself, no unit.

CCNC(=O)c1noc(-c2cc(C(C)C)c(O)cc2O)c1-c1ccc(CN2CCOCC2)cc1 [Luminespib] + Nc1nc2[nH]cc(CCc3ccc(C(=O)N[C@@H](CCC(=O)O)C(=O)O)cc3)c2c(=O)[nH]1 [Pemetrexed] (partner 0.2 µM)
0.253
CCNC(=O)c1noc(-c2cc(C(C)C)c(O)cc2O)c1-c1ccc(CN2CCOCC2)cc1 [Luminespib] + O=C(CCCCCCC(=O)Nc1ccccc1)NO [Vorinostat] (partner 1 µM)
0.728
CCNC(=O)c1noc(-c2cc(C(C)C)c(O)cc2O)c1-c1ccc(CN2CCOCC2)cc1 [Luminespib] + NC(=O)Nc1cc(-c2cccc(F)c2)sc1C(=O)N[C@H]1CCCNC1 [AZD7762] (partner 0.2 µM)
0.905

Read the next record carefully.
Hello, I am looking for reported relative viability with ChaGo-K-1 for CCNC(=O)c1noc(-c2cc(C(C)C)c(O)cc2O)c1-c1ccc(CN2CCOCC2)cc1 [Luminespib] + CC(=O)c1c(C)c2cnc(Nc3ccc(N4CCNCC4)cn3)nc2n(C2CCCC2)c1=O [Palbociclib] (partner 0.5 µM) . Could you help? 0.888

====

Listed here are compounds together with their documented relative viability.
- Test system: CAL-12T
- measurementProtocol: relative viability (nuclei count vs DMSO), 5 days (fraction); higher = more cells survive
- conditionSummary: first compound 0.003162 µM
Lab note: write the figure by itself, no unit.

Cc1cn(-c2cc(NC(=O)c3ccc(C)c(Nc4nccc(-c5cccnc5)n4)c3)cc(C(F)(F)F)c2)cn1 [Nilotinib] + COc1cc2c(Oc3ccc(NC(=O)C4(C(=O)Nc5ccc(F)cc5)CC4)cc3F)ccnc2cc1OCCCN1CCOCC1 [Foretinib] (partner 0.25 µM)
1.09

State the recorded relative viability for this entry: Cc1cn(-c2cc(NC(=O)c3ccc(C)c(Nc4nccc(-c5cccnc5)n4)c3)cc(C(F)(F)F)c2)cn1 [Nilotinib] + CC(=O)c1c(C)c2cnc(Nc3ccc(N4CCNCC4)cn3)nc2n(C2CCCC2)c1=O [Palbociclib] (partner 0.5 µM) 0.438

State the recorded relative viability for this entry: Cc1cn(-c2cc(NC(=O)c3ccc(C)c(Nc4nccc(-c5cccnc5)n4)c3)cc(C(F)(F)F)c2)cn1 [Nilotinib] + O=C(c1cc(Cc2n[nH]c(=O)c3ccccc23)ccc1F)N1CCN(C(=O)C2CC2)CC1 [Olaparib] (partner 8 µM) 0.677

State the recorded relative viability for this entry: Cc1cn(-c2cc(NC(=O)c3ccc(C)c(Nc4nccc(-c5cccnc5)n4)c3)cc(C(F)(F)F)c2)cn1 [Nilotinib] + CC1(C)CCC(c2ccc(Cl)cc2)=C(CN2CCN(c3ccc(C(=O)NS(=O)(=O)c4ccc(N[C@H](CCN5CCOCC5)CSc5ccccc5)c(S(=O)(=O)C(F)(F)F)c4)cc3)CC2)C1 [Navitoclax] (partner 0.5 µM) 1.17

====

- System: NCI-H1650
- measurementProtocol: relative viability (nuclei count vs DMSO), 5 days (fraction); higher = more cells survive
- conditionSummary: first compound 0.2 µM
metric: relative viability

These solved cases illustrate the format of a correct answer.
Cc1csc(=NC2CCCCC2)n1/N=C/c1ccc(O)c(O)c1O [MIM1] + CS(=O)(=O)N1CCN(Cc2cc3nc(-c4cccc5[nH]ncc45)nc(N4CCOCC4)c3s2)CC1 [Pictilisib] (partner 1 µM)
0.595
Cc1csc(=NC2CCCCC2)n1/N=C/c1ccc(O)c(O)c1O [MIM1] + CCNC(=O)c1noc(-c2cc(C(C)C)c(O)cc2O)c1-c1ccc(CN2CCOCC2)cc1 [Luminespib] (partner 0.01 µM)
0.223
CCNC(=O)c1noc(-c2cc(C(C)C)c(O)cc2O)c1-c1ccc(CN2CCOCC2)cc1 [Luminespib] + N=C(N)NC(=N)NCCc1ccccc1 [Phenformin] (partner 250 µM)
0.159
CCNC(=O)c1noc(-c2cc(C(C)C)c(O)cc2O)c1-c1ccc(CN2CCOCC2)cc1 [Luminespib] + CC(=O)c1c(C)c2cnc(Nc3ccc(N4CCNCC4)cn3)nc2n(C2CCCC2)c1=O [Palbociclib] (partner 0.5 µM)
0.127

Read the next record carefully.
Hello, I am looking for reported relative viability with NCI-H1650 for CN1CCN(CCOc2cc(OC3CCOCC3)c3c(Nc4c(Cl)ccc5c4OCO5)ncnc3c2)CC1 [Saracatinib] + Cc1nc(Nc2ncc(C(=O)Nc3c(C)cccc3Cl)s2)cc(N2CCN(CCO)CC2)n1 [Dasatinib] (partner 0.075 µM) . Could you help? 0.299

====

- Test system: 201T
- measurementProtocol: relative viability (nuclei count vs DMSO), 5 days (fraction); higher = more cells survive
- conditionSummary: first compound 0.002 µM
Listed here are molecules together with their documented relative viability.
Lab note: write the figure by itself, no unit.

These solved cases illustrate the format of a correct answer.
CCNC(=O)c1noc(-c2cc(C(C)C)c(O)cc2O)c1-c1ccc(CN2CCOCC2)cc1 [Luminespib] + N=C(N)NC(=N)NCCc1ccccc1 [Phenformin] (partner 250 µM)
0.396
CCNC(=O)c1noc(-c2cc(C(C)C)c(O)cc2O)c1-c1ccc(CN2CCOCC2)cc1 [Luminespib] + CC(C)C[C@H](NC(=O)[C@H](Cc1ccccc1)NC(=O)c1cnccn1)B(O)O [Bortezomib] (partner 0.002 µM)
1.11
CCNC(=O)c1noc(-c2cc(C(C)C)c(O)cc2O)c1-c1ccc(CN2CCOCC2)cc1 [Luminespib] + COc1cccc2cc(-c3nc([C@H]4CC[C@H](C(=O)O)CC4)n4ncnc(N)c34)[nH]c12 [OSI-027] (partner 0.5 µM)
0.756

Hello, I am looking for reported relative viability with 201T for CCNC(=O)c1noc(-c2cc(C(C)C)c(O)cc2O)c1-c1ccc(CN2CCOCC2)cc1 [Luminespib] + CS(=O)(=O)CCNCc1ccc(-c2ccc3ncnc(Nc4ccc(OCc5cccc(F)c5)c(Cl)c4)c3c2)o1 [Lapatinib] (partner 2 µM) . Could you help? 1.03
